Target: Glutamate receptor ionotropic, kainate (Rattus norvegicus) (UniProt P22756+Q01812+P42260+P42264+Q63273)
Experiment: Compound was evaluated for inhibition of binding of [3H]KA to specific binding at Ka receptor in rat cortical membrane at 100 uM
Format: cell membranes
assay_readout: inhibition (%)

[[record]]
chemical_string = "CCOC(=O)c1nc2c(O)nc3cc(Cl)c(-n4ccnc4)cc3n2n1"
assay_readout = "inhibition"
observed_result = 24

[[record]]
chemical_string = "O=C(O)c1nc2c(O)nc3cc(Cl)c([N+](=O)[O-])cc3n2n1"
assay_readout = "inhibition"
observed_result = 41


P: O=C(O)c1cc(O)c2c(Cl)cc(Cl)cc2n1
Q: CCOC(=O)c1nc2c(O)nc3cc(Cl)c(-n4cnnc4)cc3n2n1
Q: Lab log: flag the item ( P or Q ) with the smaller inhibition figure. Bench note: the answer is the label of the chosen record.
Result: P
(P: 8%, Q: 42%)

----------
Target: Glutamate receptor ionotropic, AMPA (Rattus norvegicus, UniProt P19490+P19491+P19492+P19493)
Assay: Compound was evaluated for inhibition of binding of [3H]AMPA to specific binding at Ionotropic glutamate receptor AMPA in rat cortical membrane
assay_readout: Ki (nM)

[[record]]
chemical_string = "CCOC(=O)c1nc2c(O)nc3cc(Cl)c(-n4cnnc4)cc3n2n1"
unit_string = "nM"
observed_result = 700


P: O=C(O)c1nc2c(=O)[nH]c3cc(Cl)c(-n4ccnc4)cc3n2n1
Q: CCOC(=O)c1nc2c(O)nc3cc(Cl)c(-n4ccnc4)cc3n2n1
R: O=C(O)c1nc2c(O)nc3cc(Cl)c(-n4cnnc4)cc3n2n1
Q: hey, can you rank those compounds up there by Ki? biggest number first please Put the labels in the requested order and list them out.
Result: Q, P, R

----------
Species: Mus musculus
Assay: Ability to inhibit depolarizations induced by AMPA in mouse cortical wedge preparations
Type: functional, organism-based
assay_readout: IC50 (µM)

Below, each entry is followed by its recorded IC50 result.
[[record]]
chemical_string = "O=C(O)c1cc(O)c2c(Cl)cc(Cl)cc2n1"
assay_readout = "IC50"
unit_string = "µM"
observed_result = 52

[[record]]
chemical_string = "CCOC(=O)c1nc2c(O)nc3cc(Cl)c(-n4ccnc4)cc3n2n1"
assay_readout = "IC50"
unit_string = "µM"
observed_result = 22

[[record]]
chemical_string = "O=C(O)c1nc2c(O)nc3cc(Cl)c(-n4cnnc4)cc3n2n1"
assay_readout = "IC50"
unit_string = "µM"
observed_result = 2.3

[[record]]
chemical_string = "CCOC(=O)c1nc2c(O)nc3cc(Cl)c(-n4cnnc4)cc3n2n1"
assay_readout = "IC50"
unit_string = "µM"
observed_result = 15


a: O=C(O)c1nc2c(O)nc3cc(Cl)c([N+](=O)[O-])cc3n2n1
b: NS(=O)(=O)c1cccc2c1c([N+](=O)[O-])cc1nc(O)c(O)nc12
Q: Between a and b , whose recorded IC50 is greater? Write the label of whichever entry you select.
Result: a

----------
Test: Compound was evaluated for inhibition of binding of [3H]glycine to specific binding at glycine receptor in rat cortical membrane
Type: cell membranes
pKi: −log10 of the molar value.
assay_readout: pKi

[[record]]
molecule = "O=C(O)c1nc2c(O)nc3cc(Cl)c([N+](=O)[O-])cc3n2n1"
assay_readout = "pKi"
observed_result = 5.66


P: O=C(O)c1cc(O)c2c(Cl)cc(Cl)cc2n1
Q: O=C(O)c1nc2c(O)nc3cc(Cl)c(-n4cnnc4)cc3n2n1 [TQX-173]
Q: Pick the one with the larger pKi: P vs Q Kindly give the label for the entry you pick.
Result: P

----------
Assay: Compound was evaluated for inhibition of binding of [3H]glycine to specific binding at glycine receptor in rat cortical membrane at 100 uM
Assay type: cell membranes
assay_readout: inhibition (%)

Answered cases to consult:
[[record]]
molecule = "CCOC(=O)c1nc2c(O)nc3cc(Cl)c(-n4ccnc4)cc3n2n1"
observed_result = 39

[[record]]
molecule = "CCOC(=O)c1nc2c(O)nc3cc(Cl)c(-n4cnnc4)cc3n2n1"
observed_result = 15


P: NS(=O)(=O)c1cccc2c1c([N+](=O)[O-])cc1nc(O)c(O)nc12 [NBQX]
Q: O=C(O)c1nc2c(O)nc3cc(Cl)c(-n4ccnc4)cc3n2n1
Q: Parameter metric = inhibition. Return the lower-valued option from P and Q . Mark your selection by writing its label.
Result: P

----------
Target: Glutamate receptor ionotropic, kainate
Assay: Compound was evaluated for inhibition of binding of [3H]KA to specific binding at Ka receptor in rat cortical membrane
pIC50: −log10 of the molar value.
assay_readout: pIC50

[[record]]
chemical_string = "O=C(O)c1nc2c(=O)[nH]c3cc(Cl)c(-n4ccnc4)cc3n2n1"
observed_result = 4.77

[[record]]
chemical_string = "O=C(O)c1nc2c(O)nc3cc(Cl)c(-n4cnnc4)cc3n2n1"
observed_result = 4.94

